- TESTED_ON: T1, CRBN, Q96SW2
- T1 chain: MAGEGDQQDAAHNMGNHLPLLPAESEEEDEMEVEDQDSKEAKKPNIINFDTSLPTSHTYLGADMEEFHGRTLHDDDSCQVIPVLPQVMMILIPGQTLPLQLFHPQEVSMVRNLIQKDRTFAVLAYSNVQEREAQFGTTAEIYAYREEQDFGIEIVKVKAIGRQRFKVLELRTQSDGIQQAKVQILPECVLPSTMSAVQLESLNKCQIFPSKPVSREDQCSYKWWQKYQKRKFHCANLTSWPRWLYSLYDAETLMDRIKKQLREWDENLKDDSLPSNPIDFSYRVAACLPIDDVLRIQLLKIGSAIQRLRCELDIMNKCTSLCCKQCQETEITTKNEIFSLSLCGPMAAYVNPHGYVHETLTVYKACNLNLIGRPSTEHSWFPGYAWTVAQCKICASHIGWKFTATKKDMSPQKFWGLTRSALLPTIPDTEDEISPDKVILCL
- ASSAY_METHOD_TEXT: log2 fold change of degron read counts, EGFP-low vs EGFP+ sorted cells (limma voom), compound-induced degradation; higher = more compound-induced degradation of the degron-EGFP fusion; degrons are variants of IKZF1/3 zinc finger 2; compound dose not given here;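 further: pooled lentiviral library of zinc finger degron-EGFP fusions in mCherry-positive Jurkat cells, FACS-sorted after compound exposure, with degron abundance counted by next-generation sequencing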
- ASSAY_CONTEXT: Jurkat; 18 h; compound: thalidomide
Over roughly 8,300 sequences, “log2 fold change of degron read counts, EGFP-low vs EGFP+ sorted cells (limma voom), compound-induced degradation” has its median near -1.1; the highest 2% begin near 3.2. The sample holds the highest values, similar sequences and a random draw of the others, so the mix is not that of the screen.
I would appreciate it if you labelled entries 1 when log2 fold change of degron read counts is -0.8 or higher, otherwise -1.

FMCEQCGASFTQKGNLLRHIKL [46F_47M_49E_50Q_52G_53A_54S_55F_67L_, Q9UKT9] = 1
FLCNVCGASFTQKGNLLRHIKL [46F_47L_49N_50V_52G_53A_54S_55F_67L_, Q9UKT9] = -1
FQCPICGHKFTQKGNLLRHIKL [46F_47Q_49P_50I_52G_53H_54K_55F_67L_, Q9UKT9] = 1
FWCEICGRFFTQKGNLLRHIKL [46F_47W_49E_50I_52G_53R_54F_55F_67L_, Q9UKT9] = -1
FKCPVCGAYFTQKGNLLRHIKL [46F_47K_49P_50V_52G_53A_54Y_55F_67L_, Q9UKT9] = -1
FVCNQCGADFTQKGNLLRHIKL [46F_47V_49N_50Q_52G_53A_54D_55F_67L_, Q9UKT9] = -1
FKCDQCGAEFTQKGNLLRHIKL [46F_47K_49D_50Q_52G_53A_54E_55F_67L_, Q9UKT9] = -1
